Each recorded value in this set is attributed to patent US20220125746A1.

- Test system: colon cancer cell line DLD1
- Test Details: PUMA-induced apoptosis inhibition in DLD1
Where a name gives a salt, the structure may show the parent alone.
Metric: Apoptosis inhibition of DLD1 (%)
# output: bare number, implied unit %

Exercise: Read the entry CC(C)CNC(=O)c1ccc2c(c1)nc1n2CCN(C(C)(C)CO)C1 [Compound 20722356] and write its reported Apoptosis inhibition of DLD1.
Key: 36

Exercise: Read the entry OCCN1CCN(CC(O)COc2ccc3ccccc3c2)CC1 (stereo not shown) [PUMAi, dihydrochloride] and write its reported Apoptosis inhibition of DLD1.
Key: 39

Exercise: Read the entry O=C(CCc1ccccc1)N/N=C/c1cccc(O)c1 [Compound 7d] and write its reported Apoptosis inhibition of DLD1.
Key: 24

Exercise: Read the entry Cc1ccc(OCC(O)CN2CCN(CCO)CC2)cc1C (stereo not shown) [Compound 21487182] and write its reported Apoptosis inhibition of DLD1.
Key: 61

Exercise: Read the entry Cc1ccc(/C=N/NC(=O)COc2ccc(C)c(C)c2)o1 [Compound 7i] and write its reported Apoptosis inhibition of DLD1.
Key: 26

Exercise: Read the entry Cc1ccc(OCC(=O)Nc2ccc(N3CCOCC3)cc2)cc1 [Compound 7e] and write its reported Apoptosis inhibition of DLD1.
Key: 30

Exercise: Read the entry COc1cccc(/C=C/NC(=O)CNc2ccc(C)cc2)c1 [Compound 7h] and write its reported Apoptosis inhibition of DLD1.
Key: 30

Exercise: Read the entry Cc1ccc(OCC(=O)N/N=C/c2cccc(O)c2)cc1C [Compound 7a] and write its reported Apoptosis inhibition of DLD1.
Key: 41

Exercise: Read the entry CCCCc1c(C)nc(N2CCN(CCO)CC2)[nH]c1=O [Compound 20647237] and write its reported Apoptosis inhibition of DLD1.
Key: 21

Exercise: Read the entry CCc1ccc(OCC(=O)NCc2ccc3c(c2)OCO3)cc1 [Compound V2] and write its reported Apoptosis inhibition of DLD1.
Key: 39

Exercise: Read the entry COc1ccc(CCNC(=O)COc2ccc(C)cc2)cc1OC [Compound V1] and write its reported Apoptosis inhibition of DLD1.
Key: 41

Exercise: Read the entry COc1cccc(/C=N/NC(=O)COc2cccc(C)c2)c1OC [Compound 7c] and write its reported Apoptosis inhibition of DLD1.
Key: 26

Exercise: Read the entry CC(C)c1ccc(OCC(=O)N/N=C/c2cccnc2)cc1 [Compound 7j] and write its reported Apoptosis inhibition of DLD1.
Key: 26

Exercise: Read the entry N#CCc1ccc(NC(=O)COc2ccc3c(c2)CCC3)cc1 [Compound 7g] and write its reported Apoptosis inhibition of DLD1.
Key: 24

###

Exercise: for every item that follows, state its recorded Apoptosis inhibition of HCT-116.
- Tested on: colon cancer cell line HCT-116
- Test Details: PUMA-induced apoptosis inhibition in HCT-116
# output: bare number, implied unit %

Exercise: Read the entry `Cc1ccc(OCC(=O)Nc2ccc(N3CCOCC3)cc2)cc1` and write its reported Apoptosis inhibition of HCT-116.
Key: 44

Exercise: Read the entry `O=C(CCc1ccccc1)N/N=C/c1cccc(O)c1` and write its reported Apoptosis inhibition of HCT-116.
Key: 21

Exercise: Read the entry `Cc1ccc(OCC(=O)N/N=C/c2cccc(O)c2)cc1` and write its reported Apoptosis inhibition of HCT-116.
Key: 21

Exercise: Read the entry `CCc1ccc(OCC(=O)NCc2ccc3c(c2)OCO3)cc1` and write its reported Apoptosis inhibition of HCT-116.
Key: 40

###

- Test system: colon cancer cell line HCT-116
- Test Details: PUMA-induced apoptosis inhibition in HCT-116
Structures can show the parent of a compound that is named as a salt.
Metric: Apoptosis inhibition of HCT-116

Exercise: Read the entry `N#CCc1ccc(NC(=O)COc2ccc3c(c2)CCC3)cc1` and write its reported Apoptosis inhibition of HCT-116.
Key: −17% (no inhibition)

Exercise: Read the entry `COc1ccc(CCNC(=O)COc2ccc(C)cc2)cc1OC` and write its reported Apoptosis inhibition of HCT-116.
Key: 38%

Exercise: Read the entry `Cc1ccc(/C=N/NC(=O)COc2ccc(C)c(C)c2)o1` and write its reported Apoptosis inhibition of HCT-116.
Key: 13%

Exercise: Read the entry `COc1cccc(/C=C/NC(=O)CNc2ccc(C)cc2)c1` and write its reported Apoptosis inhibition of HCT-116.
Key: 33%

Exercise: Read the entry `Cc1ccc(OCC(=O)Nc2ccc(S(N)(=O)=O)cc2)cc1` and write its reported Apoptosis inhibition of HCT-116.
Key: −8% (no inhibition)

Exercise: Read the entry Cc1ccc(OCC(O)CN2CCN(CCO)CC2)cc1C (stereo not shown) and write its reported Apoptosis inhibition of HCT-116.
Key: 35%

Exercise: Read the entry `CC(C)c1ccc(OCC(=O)N/N=C/c2cccnc2)cc1` and write its reported Apoptosis inhibition of HCT-116.
Key: −8% (no inhibition)

Exercise: Read the entry `COc1cccc(/C=N/NC(=O)COc2cccc(C)c2)c1OC` and write its reported Apoptosis inhibition of HCT-116.
Key: 21%

Exercise: Read the entry OCCN1CCN(CC(O)COc2ccc3ccccc3c2)CC1 (stereo not shown) [PUMAi, dihydrochloride] and write its reported Apoptosis inhibition of HCT-116.
Key: 17%

Exercise: Read the entry `Cc1ccc(OCC(=O)N/N=C/c2cccc(O)c2)cc1C` and write its reported Apoptosis inhibition of HCT-116.
Key: 33%
